tested on: WI-38 cells; experiment: Viability of WI-38 cells, Alamar Blue (Assay 5); format: cell-based, human; settings: 30 μM
Provide the reported Decrease in cell viability (%) of each item.
One number for each entry, in %.

COc1cc(CCC(=O)CC(=O)c2ccc(C)cc2)ccc1O :: 1
COc1cc(CCC(=O)CC(=O)c2ccc(Cl)cc2)ccc1O :: 11
COc1cc(CCC(=O)C(C)C(=O)c2ccc(C)cc2)ccc1O (stereo not drawn) :: −4
COc1ccc(C(=O)C(C)C(=O)CCc2ccc(O)c(OC)c2)cc1 (stereo not drawn) :: 4
COc1cc(CCC(=O)CC(=O)c2ccc(Cl)c(Cl)c2)ccc1O :: 16
COc1cc(CCC(=O)CC(=O)c2ccc(C(C)(C)C)cc2)ccc1O :: 31
COc1cc(CCC(=O)C(C)(C)C(=O)C(C)(C)C)ccc1O :: 11
COc1cc(CCC(=O)CC(=O)Cc2ccccc2)ccc1O :: 6

Hi! Can you tell me Decrease in cell viability (%) for each of these compounds?
1. COc1cc(CCC(=O)CC(=O)c2ccc(O)c(OC)c2)ccc1O
2. COc1cc(CCC(=O)CC(=O)c2ccc(Cl)cc2Cl)ccc1O
3. COc1cc(CCC(=O)CC(=O)c2ccc3ccccc3c2)c(Cl)cc1O
4. COc1cc(CCC(=O)CC(=O)c2ccccc2)ccc1O
5. COc1cc(CCC(=O)C(Cc2ccccc2)C(=O)c2ccccc2)ccc1O (stereo not drawn)

−1
26
37
4
−3

====

target: TRPV1 receptor (Rattus norvegicus, UniProt O35433); assay: TRPV1 modulation in DRG neurones: CGRP release in absence and presence of capsaicin (Assay 2); format: cell-based; design: The culture used for this experiment contained sensory neurones, Schwann cells and fibroblasts; endogenous in cells; host or cells: primary rat DRG sensory neurone culture (with Schwann cells and fibroblasts); details: 20 min; 30 μM with capsaicin 1 μM; −ve: inhibition, +ve: potentiation of capsaicin response; read-out: Effect of test compounds on capsaicin (1 μM)-induced CGRP release (%)
Sequence (O35433 whole entry): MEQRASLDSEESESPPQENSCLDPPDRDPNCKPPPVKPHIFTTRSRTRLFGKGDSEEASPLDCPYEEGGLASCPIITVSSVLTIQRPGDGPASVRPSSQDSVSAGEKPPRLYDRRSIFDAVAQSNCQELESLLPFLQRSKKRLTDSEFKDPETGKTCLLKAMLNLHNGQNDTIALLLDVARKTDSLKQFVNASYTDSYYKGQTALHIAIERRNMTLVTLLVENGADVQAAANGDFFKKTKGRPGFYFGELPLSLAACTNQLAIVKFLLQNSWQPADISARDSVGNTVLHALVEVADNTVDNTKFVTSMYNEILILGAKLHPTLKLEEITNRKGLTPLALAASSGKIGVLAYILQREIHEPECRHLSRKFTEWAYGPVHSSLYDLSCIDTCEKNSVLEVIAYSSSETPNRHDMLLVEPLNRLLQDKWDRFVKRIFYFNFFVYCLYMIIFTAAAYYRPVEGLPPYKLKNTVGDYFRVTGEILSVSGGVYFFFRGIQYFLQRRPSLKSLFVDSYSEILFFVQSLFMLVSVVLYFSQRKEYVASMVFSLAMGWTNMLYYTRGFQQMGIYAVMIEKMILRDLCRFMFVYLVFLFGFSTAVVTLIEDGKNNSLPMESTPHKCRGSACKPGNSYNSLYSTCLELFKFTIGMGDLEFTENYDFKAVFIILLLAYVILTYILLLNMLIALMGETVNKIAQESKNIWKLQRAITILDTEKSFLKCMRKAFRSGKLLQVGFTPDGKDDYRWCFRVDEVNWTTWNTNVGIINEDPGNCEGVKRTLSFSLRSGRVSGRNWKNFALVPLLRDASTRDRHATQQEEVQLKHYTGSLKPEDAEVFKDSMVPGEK
Please use Criterion met whenever inhibition at 30 µM is not below -60%, and Criterion not met whenever it is.

COc1cc(CCC(=O)CC(=O)c2cccc(Cl)c2)ccc1O :: Criterion met
COc1cc(CCC(=O)C(Cc2ccccc2)C(=O)c2ccccc2)ccc1O (stereo not drawn) :: Criterion not met
COc1cc(CCC(=O)CC(=O)C(C)(C)c2ccccc2)ccc1O :: Criterion not met
COc1cc(CCC(=O)C(C)(C)C(=O)c2ccccc2)ccc1O :: Criterion met
COc1cc(CCC(=O)CC(=O)c2ccc3ccccc3c2)ccc1O :: Criterion met

# input for lookup
Does the molecule COc1cc(CCC(=O)C(C)(C)C(=O)c2ccc(C)cc2)ccc1O have recorded inhibition at 30 µM that is -60% or more?
Criterion met

====

biological target: TRPV1 receptor (Rattus norvegicus, UniProt O35433); assay: TRPV1 modulation in DRG neurones: CGRP release in absence and presence of capsaicin (Assay 2); type: cell-based; set-up: The culture used for this experiment contained sensory neurones, Schwann cells and fibroblasts; endogenous in cells; host or cells: primary rat DRG sensory neurone culture (with Schwann cells and fibroblasts); settings: 20 min; test compound alone 30 μM, rat DRG sensory neurones, 20 min; read-out: CGRP release (% of capsaicin (1 μM) response)
attribute measured: Emax at 30 µM (%)
Answers are plain numbers, in %.

Lab note: each molecule below needs its Emax at 30 µM filled in.
1. COc1cc(CCC(=O)CC(=O)c2ccc(-c3ccccc3)cc2)ccc1O [Compound 18]
2. COc1cc(CCC(=O)C(C)(C)C(=O)c2ccc(C)cc2)ccc1O [Compound 81]
3. COc1cc(CCC(=O)CC(=O)c2ccc(C)cc2)ccc1O [Compound 80]
4. COc1cc(CCC(=O)CC(=O)c2ccc(C(C)(C)C)cc2)ccc1O [Compound 83]

1: 146; 2: 104; 3: 118; 4: 144

// data source = patent US7589123B2
